Target: T1, 4H883-AA
T1 chain: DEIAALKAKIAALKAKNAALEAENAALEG
Test: two-hybrid library CCmax;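 note: natural log of median RNA to DNA barcode read ratio; higher means stronger binding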
Details: mean of both orientations
quantity: interaction score
Give bare numbers.

These recorded examples may help you get a feel for the data.
{"binder": "DEIAALKAENAALKAEIAALKAKIAALEG [4H717-AA]", "interaction score": -1.82}
{"binder": "DKNAALKAKNAALEAKIAALEAEIAALEG [4H4001-AA]", "interaction score": -1.75}

// input: 4 binders below; output: interaction score for each
1. DKIAALEAKNAALEAEIAALKAEIAALKG [4H2442-AA]
2. DKNAALKAENAALKAEIAALEAKIAALKG [4H3782-AA]
3. DEIAALKAEIAALEAKNAALEAKNAALKG [4H568-AA]
4. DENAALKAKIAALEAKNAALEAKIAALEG [4H1845-AA]

1. -1.82
2. -1.27
3. 2.12
4. -1.57
